Reference for the values: PubChem BioAssay AID588458

study system: DNA (cytosine-5)-methyltransferase 1 (Homo sapiens)
experimental protocol: inhibition of DNA methyltransferase DNMT1 – biochemical, molecular beacon, fluorescence, HinP1I cleavage, uHTS, primary screen (AID 588458)
condition context: at 10 µM, hits give high values
Screen size: about 360,000 compounds; about 3,000 (0.83%) were called active. The entries come from a sample that favours actives as a whole.
test readout: inhibition (reported as % activation of signal)

{"columns": ["molecule", "measured"],
 "data": [
  ["CCOc1cc(CN2CCCC(CO)(Cc3ccc(F)cc3F)C2)ccc1OC (stereo unspecified)", "60.8% (active)"],
  ["Cc1cc(C)n2nc(C(=O)N(C)C(c3ccccc3)c3ccccc3)nc2n1", "2.32% (inactive)"],
  ["CN(C)CC(C)(C)CNC(=O)c1cc(Br)cc(Br)c1O", "-5.18% (inactive)"],
  ["Cc1ccc(-c2cc(C(=O)NCc3cn(C)nc3C)c3cc(Br)ccc3n2)cc1", "54.2% (active)"],
  ["Nc1cccc(-c2cncc(N3CCN(Cc4ccccn4)CC3)n2)c1", "-1.68% (inactive)"],
  ["COc1cc(C(=O)Nc2cc(C(F)(F)F)ccc2-n2cncn2)cc(OC)c1OC", "-2.48% (inactive)"],
  ["C=CCN1CCN(C(=O)CCCc2ccccc2)CC1", "0.85% (inactive)"],
  ["CC1(C(=O)NS(=O)(=O)c2ccccc2)CCN1C(=O)Cc1ccc(-c2ccccc2)cc1 (stereo unspecified)", "3.68% (inactive)"],
  ["O=C(NC1(C(F)(F)F)NC(=O)N(Cc2cccnc2)C1=O)c1ccccc1Cl (stereo unspecified)", "5.41% (inactive)"],
  ["COc1cc(/C=N/N=C(\\N)c2nonc2N)cc(OC)c1OC", "-0.45% (inactive)"],
  ["CC(C)C(=O)Nc1ccc2c(c1)oc1ccccc12", "-5.97% (inactive)"],
  ["Cc1ccc2c(c1)N(CC(=O)N1CCC(C)CC1)C(=O)c1cccnc1O2", "-0.74% (inactive)"],
  ["CC(=O)[C@@]12O[C@@H]1C[C@H]1[C@@H]3CC[C@H]4C[C@@H](O)CC[C@]4(C)[C@H]3CC[C@@]12C", "1% (inactive)"],
  ["C=CCCC(=O)Nc1nc(C)c(-c2csc(Nc3ccc(Cl)cc3)n2)s1", "-14.7% (inactive)"],
  ["CC1(C(=O)NS(=O)(=O)c2ccccc2)CCN1C(=O)C/C=C/c1ccccc1 (stereo unspecified)", "84.5% (active)"],
  ["CCN(CC)P(=O)(C(NC(=O)OC)C(F)(F)C(F)(F)C(F)(F)C(F)F)N(CC)CC (stereo unspecified)", "0.14% (inactive)"],
  ["COc1cc(OC)cc(C(=O)NNC(=O)Cc2cccs2)c1", "7.66% (inactive)"],
  ["COc1cccc(NC(=O)CSc2nccn(-c3ccc4c(c3)OCCO4)c2=O)c1", "0.94% (inactive)"],
  ["C[C@H]([C@@H](O)[C@@H](O)[C@@H](C)C(C)(C)C)[C@H]1CC[C@H]2C3CC[C@H]4C[C@H](OS(=O)(=O)O)[C@@H](OS(=O)(=O)O)C[C@]4(C)[C@H]3CC[C@]12C (stereo partly specified)", "46.8% (inactive)"],
  ["Nc1ncnc(Nc2cccc(Cl)c2Cl)n1", "0.57% (inactive)"],
  ["CCCN1Cc2cccc(C(=O)NCc3ccccc3)c2C1=O", "0.1% (inactive)"]
]}

---

study system: DNA (cytosine-5)-methyltransferase 1 (Homo sapiens)
experimental protocol: inhibition of DNA methyltransferase DNMT1 – biochemical, molecular beacon, fluorescence, HinP1I cleavage, uHTS, primary screen (AID 588458)
condition context: at 10 µM
The whole screen tested about 360,000 compounds, of which about 3,000 (0.83%) were called active. Cut-off read from the data, not from the text of the source: active = inhibition above about 50%; inactive = the rest. The list comes from a sample in which actives are over-represented; it also holds close analogues and randomly drawn compounds.
Labels: label 1 for active, label 0 for inactive

{"columns": ["molecule", "label value"],
 "data": [
  ["CCN(C(=O)CSc1nc(N)cc(=O)[nH]1)C1CCS(=O)(=O)C1 (stereo unspecified)", "label 1"],
  ["COc1cccc(-n2c(N)cc(=O)nc2SCC(=O)Nc2cc(C)on2)c1", "label 0"],
  ["CC(C)Nc1nnc(SCC(=O)c2c[nH]c3ccccc23)s1", "label 0"],
  ["CN(CCOc1ccccc1)C(=O)c1cc(COc2c(F)cccc2F)on1", "label 0"],
  ["CN=C1C=C/C(=N/N=c2\\ccn(O)cc2C)C=C1C", "label 0"],
  ["Cc1c(C(=O)N(Cc2ccccc2)Cc2cccnc2)cnn1-c1ccc(F)cc1", "label 0"],
  ["CCOc1cc(CNCCN(C)C)c(Cl)cc1OCC(=O)NCCc1ccccc1", "label 0"],
  ["O=C(CCC(=O)N/N=C/c1ccc(Br)o1)N/N=C/c1ccc(Br)o1", "label 0"],
  ["CN(C(=O)COC(=O)c1cc(-c2ccco2)nc2ccccc12)C1CCS(=O)(=O)C1 (stereo unspecified)", "label 1"],
  ["CN(C(=O)COC(=O)Cc1ccccc1[N+](=O)[O-])C1CCS(=O)(=O)C1 (stereo unspecified)", "label 0"],
  ["NC(=S)NN=Cc1ccc(OC(=O)COc2cc(Cl)c(Cl)cc2Cl)cn1", "label 0"],
  ["COc1ccc(/C=C2\\SC(=N)N(c3ccc(F)cc3)C2=O)cc1", "label 1"],
  ["CN(Cc1cc2cc(F)ccc2[nH]1)Cc1nc(-c2cnccn2)no1", "label 0"],
  ["CCN(C(=O)CSc1nc2ccccc2n1CC)C1CCS(=O)(=O)C1 (stereo unspecified)", "label 0"],
  ["O=C(CCc1n[nH]c(=O)[nH]c1=O)N/N=C/c1ccc(Br)o1", "label 0"],
  ["Cn1cccc1Cc1nnc(SCC(=O)NCc2ccc3c(c2)OCO3)n1CCc1ccccc1", "label 0"],
  ["CC(C)(C)C1C/C(=C/c2ccco2)C(=O)/C(=C/c2ccco2)C1 (stereo unspecified)", "label 1"],
  ["CCN(C(=O)CSc1nnc2ccccn12)C1CCS(=O)(=O)C1 (stereo unspecified)", "label 0"],
  ["CC(C)(C)NC(=O)COC(=O)c1cc(Cl)ccc1[N+](=O)[O-]", "label 0"],
  ["COc1ccc(NC(=O)COc2ccc(C(=O)OCC(=O)N(C)C3CCS(=O)(=O)C3)cc2OC)cc1 (stereo unspecified)", "label 0"],
  ["O=C(c1cc(-c2ccco2)nc2ccccc12)N(Cc1nnc(-c2ccc(Cl)cc2)o1)C1CC1", "label 0"]
]}

---

Reported values of inhibition (reported as % activation of signal) for individual entries
study system: DNA (cytosine-5)-methyltransferase 1 (Homo sapiens) (UniProt P26358)
Sequence (P26358 504-1616 limits assumed): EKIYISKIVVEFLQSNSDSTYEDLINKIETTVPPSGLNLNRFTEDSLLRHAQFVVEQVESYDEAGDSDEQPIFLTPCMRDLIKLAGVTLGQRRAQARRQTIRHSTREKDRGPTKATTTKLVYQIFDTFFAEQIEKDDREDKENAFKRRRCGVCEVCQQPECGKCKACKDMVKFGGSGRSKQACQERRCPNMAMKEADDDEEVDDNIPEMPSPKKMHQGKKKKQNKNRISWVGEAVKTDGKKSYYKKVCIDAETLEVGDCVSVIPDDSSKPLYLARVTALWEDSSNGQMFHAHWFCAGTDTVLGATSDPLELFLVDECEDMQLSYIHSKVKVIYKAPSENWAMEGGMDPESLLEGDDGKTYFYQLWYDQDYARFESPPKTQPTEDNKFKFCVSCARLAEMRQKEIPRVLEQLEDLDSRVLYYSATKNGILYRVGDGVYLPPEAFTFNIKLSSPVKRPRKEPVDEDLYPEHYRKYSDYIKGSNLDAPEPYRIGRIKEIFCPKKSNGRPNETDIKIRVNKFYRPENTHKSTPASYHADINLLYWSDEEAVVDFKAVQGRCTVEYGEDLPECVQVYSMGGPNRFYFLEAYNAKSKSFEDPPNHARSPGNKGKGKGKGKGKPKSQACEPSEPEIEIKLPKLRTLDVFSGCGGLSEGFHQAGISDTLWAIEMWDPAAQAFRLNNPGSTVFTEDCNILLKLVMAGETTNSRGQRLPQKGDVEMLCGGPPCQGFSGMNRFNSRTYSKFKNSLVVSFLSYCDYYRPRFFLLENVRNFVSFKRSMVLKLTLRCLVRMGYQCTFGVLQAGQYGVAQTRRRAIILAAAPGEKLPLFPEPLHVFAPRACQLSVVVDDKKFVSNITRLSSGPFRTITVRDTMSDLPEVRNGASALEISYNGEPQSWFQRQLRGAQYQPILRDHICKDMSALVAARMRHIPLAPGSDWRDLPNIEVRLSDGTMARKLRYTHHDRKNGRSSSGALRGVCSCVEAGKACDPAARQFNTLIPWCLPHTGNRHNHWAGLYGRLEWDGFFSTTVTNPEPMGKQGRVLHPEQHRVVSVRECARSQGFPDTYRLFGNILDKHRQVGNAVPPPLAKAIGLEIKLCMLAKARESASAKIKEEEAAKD
experimental protocol: inhibition of DNA methyltransferase DNMT1 – biochemical, molecular beacon, fluorescence, HinP1I cleavage, uHTS, primary screen (AID 588458)
condition context: at 10 µM, hits give high values
Screen size: about 360,000 compounds; about 3,000 (0.83%) were called active. Many of the other results were omitted from the sample, so actives are more common in it than they were.
test readout: inhibition (reported as % activation of signal) (%)

{"columns": ["compound", "measured"],
 "data": [
  ["CCOC(=O)C1CCCN(C(=O)c2ccc(C)c(F)c2)CC1 (configuration not stated)", 1.76],
  ["CCCOc1ccc(F)cc1-c1cc(C(=O)Nc2ccc(F)cc2)[nH]n1", -1.3],
  ["CCNC(=O)C1CCCN(C(=O)c2cc(F)ccc2C)CC1 (configuration not stated)", 58],
  ["CCOC(=O)C1CCCN(C(=O)c2ccc(N(C)C)cc2)CC1 (configuration not stated)", -7.05],
  ["CCCn1nc(C(=O)OCc2nc(N)nc(Nc3ccccc3C)n2)c2ccccc2c1=O", -3.44],
  ["CC(=O)c1ccc(Nc2nc(C(N)c3ccccc3Cl)cs2)cc1 (configuration not stated)", -17.7],
  ["CCN1C(=O)c2cccc3c(N)ccc1c23", 51.2],
  ["O=C(COC(=O)CSc1nnc(-c2ccc(Cl)cc2)o1)Nc1cc(Cl)cc(Cl)c1", 3.58],
  ["O=C(NCC(O)c1nc2ccccc2[nH]1)c1ccc(Br)cc1 (configuration not stated)", -1.63],
  ["CC1CCCCC1NC(=O)c1cc(=O)[nH]c2ccccc12 (configuration not stated)", 3.02],
  ["O=c1c2cc([N+](=O)[O-])ccc2nc2n1CCC2", 2.73],
  ["CCCCn1nnnc1C(c1cccc(OC)c1OC)N1CCN(C/C=C/c2ccccc2)CC1 (configuration not stated)", -2.12],
  ["O=C(Nc1cccc(-c2nc3ccccc3[nH]2)c1)c1ccc(C(=O)Nc2cccc(-c3nc4ccccc4[nH]3)c2)cc1", 56.8],
  ["CC(Oc1ccccc1)C(=O)Nc1oc(-c2ccco2)c(-c2ccco2)c1C#N (configuration not stated)", 63.1],
  ["COCC(=O)N(C)[C@H]1C[C@H]2c3cc(Oc4ccccc4C)ccc3CCN2C(=O)[C@H]1[C@H](C)O", -0.44],
  ["Cn1cc(C2OC(=O)c3ccccc32)c2ccccc21 (configuration not stated)", 1.23],
  ["CCOc1ccccc1-n1c(SCC(=O)N2CCCC2)nnc1-c1ccoc1C", 7.56],
  ["Cc1nn(C)cc1N1C(=O)c2cccc3c(N)ccc(c23)C1=O", 65],
  ["CC(C)C(=O)Nc1oc(-c2ccccc2)cc1C#N", 1.41],
  ["O=C(CN1C(=O)c2cccc3cccc1c23)Nc1ccccc1", 6.37],
  ["N#Cc1c(NC(=O)CCCN2C(=O)c3ccccc3C2=O)oc(-c2ccccc2)c1-c1ccccc1", -7.82],
  ["COc1ccc(OC)c(NC(=O)c2cc(-c3cc(F)ccc3OCC3CCCO3)n[nH]2)c1 (configuration not stated)", 105]
]}
